Target: Sodium-dependent dopamine transporter (Homo sapiens, UniProt Q01959)
Sequence (Q01959 whole entry): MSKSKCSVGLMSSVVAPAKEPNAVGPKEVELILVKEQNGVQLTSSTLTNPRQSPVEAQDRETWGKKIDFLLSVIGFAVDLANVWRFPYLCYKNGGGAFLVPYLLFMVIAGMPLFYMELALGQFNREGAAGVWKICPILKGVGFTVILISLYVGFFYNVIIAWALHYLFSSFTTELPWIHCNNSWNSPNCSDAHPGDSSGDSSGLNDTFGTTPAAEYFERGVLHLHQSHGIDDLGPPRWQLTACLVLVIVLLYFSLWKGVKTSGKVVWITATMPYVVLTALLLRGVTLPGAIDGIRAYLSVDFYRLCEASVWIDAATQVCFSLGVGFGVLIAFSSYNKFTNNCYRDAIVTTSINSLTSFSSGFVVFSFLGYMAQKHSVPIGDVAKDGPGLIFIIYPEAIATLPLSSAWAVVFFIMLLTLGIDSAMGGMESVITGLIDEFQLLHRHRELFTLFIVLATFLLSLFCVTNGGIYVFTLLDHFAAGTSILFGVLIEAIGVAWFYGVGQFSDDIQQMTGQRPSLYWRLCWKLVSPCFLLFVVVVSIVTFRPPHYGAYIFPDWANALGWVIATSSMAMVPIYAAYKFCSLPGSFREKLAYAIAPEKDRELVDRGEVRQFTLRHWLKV
Assay: DRUGMATRIX: Dopamine Transporter radioligand binding (ligand: [125I] RTI-55)
Assay type: cell membranes, CHO-K1, Membrane
Settings: Not Active = under 50% inhibition at 10 µM; read-out: Ki
pKi: −log10 of the molar value.
Recorded metric: pKi

>>> observed_measurement("NC1=NC(=O)C(c2ccccc2)O1 (stereo not drawn)")
6.38
>>> observed_measurement("O=c1ncn2nc(Sc3ccc(F)cc3F)ccc2c1-c1c(Cl)cccc1Cl")
5.19
>>> observed_measurement("Cc1ccc(-c2cc(C(F)(F)F)nn2-c2ccc(S(N)(=O)=O)cc2)cc1")
5.71
>>> observed_measurement("CC/C(=C(\\c1ccccc1)c1ccc(OCCN(C)C)cc1)c1ccccc1")
5.84
>>> observed_measurement("Cc1cc(C(C#N)c2ccc(Cl)cc2)c(Cl)cc1NC(=O)c1cc(I)cc(I)c1O (stereo not drawn)")
5.42
>>> observed_measurement("Cc1oncc1C(=O)Nc1ccc(C(F)(F)F)cc1 [LEFLUNOMIDE]")
5.64
>>> observed_measurement("CC(C)(C)NC(=O)[C@@H]1C[C@@H]2CCCC[C@@H]2CN1C[C@@H](O)[C@H](Cc1ccccc1)NC(=O)[C@H](CC(N)=O)NC(=O)c1ccc2ccccc2n1")
4.55
>>> observed_measurement("N[C@@H]1[C@H]2CN(c3nc4c(cc3F)c(=O)c(C(=O)O)cn4-c3ccc(F)cc3F)C[C@@H]12")
4.31
